Target system: P. falciparum apicoplast DNA polymerase (Pf-apPOL) (Plasmodium falciparum, UniProt Q8ILY1)
Sequence (Q8ILY1 entry or part of it): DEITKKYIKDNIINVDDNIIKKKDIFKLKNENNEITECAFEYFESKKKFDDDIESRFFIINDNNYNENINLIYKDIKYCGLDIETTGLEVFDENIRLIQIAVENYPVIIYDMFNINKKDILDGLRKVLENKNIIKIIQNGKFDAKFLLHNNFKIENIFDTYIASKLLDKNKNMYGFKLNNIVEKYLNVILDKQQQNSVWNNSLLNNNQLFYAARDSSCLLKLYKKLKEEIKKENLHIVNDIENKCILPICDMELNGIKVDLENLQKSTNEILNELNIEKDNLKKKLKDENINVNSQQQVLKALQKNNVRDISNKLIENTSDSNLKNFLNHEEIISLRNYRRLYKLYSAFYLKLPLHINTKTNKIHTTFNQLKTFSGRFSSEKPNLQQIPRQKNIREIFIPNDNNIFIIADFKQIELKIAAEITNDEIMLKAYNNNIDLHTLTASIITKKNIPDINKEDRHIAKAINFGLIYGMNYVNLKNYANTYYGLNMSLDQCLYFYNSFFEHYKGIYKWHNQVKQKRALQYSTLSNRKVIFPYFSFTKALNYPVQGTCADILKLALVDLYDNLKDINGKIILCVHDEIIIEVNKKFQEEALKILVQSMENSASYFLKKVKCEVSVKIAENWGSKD
Procedure text: Fluorescence-based high-throughput DNA polymerase assay (molecular beacon), primary screen and dose-response;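 for % inhibition apPOL 180': test concentration in µM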
Type: biochemical
Condition: DRC-2; 180'; conc 40
Experimental endpoint: % inhibition apPOL 180' (%)
One number for each entry, in %.

# Compound, Target system, Unit tag, % inhibition apPOL 180'
data = [
    ("COc1ccccc1C1CC(=O)Oc2cc3c(cc21)OCO3 (stereo not drawn)", "P. falciparum apicoplast DNA polymerase (Pf-apPOL) (Plasmodium falciparum, UniProt Q8ILY1)", "%", 78),
]

Please report % inhibition apPOL 180' for every entry that follows.
1. Cc1cccc(C2=N/C(=C\c3ccc([N+](=O)[O-])o3)C(=O)O2)c1
2. O=c1nc(/C=C/c2ccc(Br)cc2)oc2ccccc12
3. O=C(O)c1ccc(COc2cc([N+](=O)[O-])cc3cccnc23)cc1

1: 63; 2: 79; 3: 48

Please report % inhibition apPOL 180' for every entry that follows.
1. Cc1ccc(N2NC(=O)/C(=C\c3ccc(O)c([N+](=O)[O-])c3)C2=O)cc1Cl
2. C=CCOc1c(Br)cc(Br)cc1/C=C1\SC(=N)NC1=O

1. 57
2. 76

###

Target system: P. falciparum apicoplast DNA polymerase (Pf-apPOL) (Plasmodium falciparum, UniProt Q8ILY1)
Procedure text: Fluorescence-based high-throughput DNA polymerase assay (molecular beacon), primary screen and dose-response
Format: biochemical
Condition: DRC-2; 90'; conc 80
Excerpt: The HT assay employs a molecular beacon, a stem-loop DNA template with a Cy3 dye and the Black Hole Quencher on the 3′ and 5′ ends of the DNA, respectively. Pf-apPOL concentration is based on a calculated absorptivity of ε280 = 56750 M^−1 cm^−1. […] To identify apPOL inhibitors we utilised our previously developed high-throughput DNA polymerase assay. […] The assay accurately recapitulates the kinetic behaviour of apPOL, as measured through more conventional low-throughput gel-based assays. […]
Kindly supply the reported % inhibition ApPOL 90' values for the records listed here.
Numbers only, in %.

# Compound, Unit tag, Reported result
records = [
    ("C=CC1=C(C)c2cc3[nH]c(cc4nc(cc5[nH]c(cc1n2)c(C)c5CCC(=O)O)C(CCC(=O)O)=C4C)c(C)c3C=C", "%", 75),
    ("O=C(O)c1ccc(COc2cc([N+](=O)[O-])cc3cccnc23)cc1", "%", 76),
]

Please report % inhibition ApPOL 90' for every entry that follows.
1. Cc1cc(C)c2c(c1)C1C=CCC1C(c1ccc(C(=O)O)cc1)N2 (stereo not shown)
2. CCOc1nc2cccc(C(=O)OC(C)OC(=O)OC3CCCCC3)c2n1Cc1ccc(-c2ccccc2-c2nnn[nH]2)cc1 (stereo not shown)

[79, 77]

###

Target system: UniProt Q8ILY1
Procedure text: Fluorescence-based high-throughput DNA polymerase assay (molecular beacon), primary screen and dose-response
Assay type: biochemical
Condition: DRC-2; read at 90'; concentration 10
Experimental endpoint: % inhibition ApPOL 90' 10 (%)
Numbers only, in %.

Some entries whose results are on file:
# Molecule, Unit tag, % inhibition ApPOL 90' 10
data = [
    ("Cc1ccsc1Cn1c(C)ccc1C [Molecule 70, Cc1ccsc1Cn1c(C)ccc1C]", "%", 14),
    ("Cc1cc2[nH]c(C(=O)Nc3ccc(F)cc3)c(CN3CCOCC3)c2s1 [Molecule 60]", "%", 18),
]

Please report % inhibition ApPOL 90' 10 for every entry that follows.
1. O=C(c1ccccc1)N1CCc2c(nc3cc(-c4ccccc4)[nH]n3c2=O)C1 [Molecule 30]
2. C#CC(C=CC)OC(=O)c1ccccc1C(=O)O (centres unmarked) [Molecule 61, CC=CC(OC(=O)c1ccccc1C(=O)O)C#C]
3. CC(=O)Nc1cc(C(=O)c2cccs2)nn(-c2ccc(Cl)cc2)c1=O [KU0267905]
4. N#Cc1c(O)nc(N2CCCCC2)nc1-c1ccc2c(c1)OCO2 [KU0083146]
5. Cn1nc(-c2nc(-c3ccccc3)no2)c2c1CCN(C(=O)Cc1cccs1)C2 [Molecule 58]
6. CC(C)CC(C(=O)O)N1C(=O)C2C3C=CC(C2C1=O)C1C(=O)N(C(CC(C)C)C(=O)O)C(=O)C31 (centres unmarked) [KU0193449]

39
26
12
31
23
11

###

Kindly supply the reported % inhibition T4 40' 80 values for the records listed here.
Target system: bacteriophage T4 DNA polymerase (Enterobacteria phage T4)
Construct: made in house
Sequence (P04415 whole entry): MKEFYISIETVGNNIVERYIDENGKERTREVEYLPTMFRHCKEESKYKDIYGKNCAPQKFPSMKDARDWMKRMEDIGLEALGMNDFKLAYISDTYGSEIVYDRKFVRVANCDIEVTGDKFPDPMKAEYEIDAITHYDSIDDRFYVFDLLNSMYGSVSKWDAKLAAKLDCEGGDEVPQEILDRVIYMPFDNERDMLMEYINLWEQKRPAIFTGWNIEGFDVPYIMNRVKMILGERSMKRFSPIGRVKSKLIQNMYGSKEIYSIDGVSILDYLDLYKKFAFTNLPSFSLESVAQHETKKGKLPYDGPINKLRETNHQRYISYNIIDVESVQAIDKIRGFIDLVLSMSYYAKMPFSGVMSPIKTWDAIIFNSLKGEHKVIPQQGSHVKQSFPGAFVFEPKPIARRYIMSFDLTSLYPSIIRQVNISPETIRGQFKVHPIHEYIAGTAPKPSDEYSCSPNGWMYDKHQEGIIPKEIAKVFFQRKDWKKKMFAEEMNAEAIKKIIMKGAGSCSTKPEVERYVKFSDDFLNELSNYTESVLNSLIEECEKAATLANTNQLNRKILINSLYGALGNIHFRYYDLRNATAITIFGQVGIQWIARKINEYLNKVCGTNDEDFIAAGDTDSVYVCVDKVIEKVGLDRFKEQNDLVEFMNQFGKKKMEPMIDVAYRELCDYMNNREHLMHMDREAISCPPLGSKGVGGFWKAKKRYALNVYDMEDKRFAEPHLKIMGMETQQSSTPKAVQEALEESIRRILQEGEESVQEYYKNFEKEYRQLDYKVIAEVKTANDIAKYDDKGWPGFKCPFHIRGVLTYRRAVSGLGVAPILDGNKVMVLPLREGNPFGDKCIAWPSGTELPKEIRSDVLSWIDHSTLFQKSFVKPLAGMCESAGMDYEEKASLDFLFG
Procedure text: Counter-screen against bacteriophage T4 DNA polymerase
Format: biochemical
Condition: DRC-2; read at 40'; concentration 80
One number for each entry, in %.

Some entries whose results are on file:
# Compound, Unit tag, % inhibition T4 40' 80
data = [
    ("COc1ccccc1CC(=O)N1CCc2c(nc3cc(-c4ccccc4Cl)[nH]n3c2=O)C1", "%", -47),
    ("Cn1nc(-c2nnc(-c3ccccc3F)o2)c2c1CCN(C(=O)c1ccccc1Cl)C2", "%", 12),
    ("Cc1nc(C)c2c(n1)N(CC1CCCCC1)C(=O)CC2", "%", 12),
    ("Cc1cc2[nH]c(C(=O)Nc3ccc(F)cc3)c(CN3CCOCC3)c2s1", "%", 27),
]

Please report % inhibition T4 40' 80 for every entry that follows.
1. Cc1ccsc1Cn1c(C)ccc1C
2. O=C(c1ccccc1)N1CCc2c(nc3cc(-c4ccccc4)[nH]n3c2=O)C1
3. CC(C)CC(C(=O)O)N1C(=O)C2C3C=CC(C2C1=O)C1C(=O)N(C(CC(C)C)C(=O)O)C(=O)C31 (stereo not drawn)
4. CCCc1ccc(Oc2coc3cc(OC)ccc3c2=O)cc1
5. COc1ccc(C2CC(c3ccc(Cl)cc3Cl)Nc3nc(N)nn32)cc1OC (stereo not drawn)

1. 7
2. -22
3. 55
4. -4.57
5. 0.512

###

Target system: P. falciparum apicoplast DNA polymerase (Pf-apPOL) (Plasmodium falciparum, UniProt Q8ILY1)
Procedure text: Fluorescence-based high-throughput DNA polymerase assay (molecular beacon), primary screen and dose-response
Type: biochemical
Condition: DRC-1; concentration 5; 90'
Experimental endpoint: % inhibition Apol 90' (%)
One number for each entry, in %.

Some entries whose results are on file:
# Compound, Unit tag, % inhibition Apol 90'
measured = [
    ("O=C(O)c1nc(-c2ccccc2)nc2c1OCO2 [Molecule 45, OC(=O)c1nc(nc2c1OCO2)c1ccccc1]", "%", 2.776),
    ("Cc1ccnc(NS(=O)(=O)c2ccc(-n3cccc3)cc2)n1 [KU0034899]", "%", 11.3898),
    ("Cc1ccc(C2=N/C(=C\\c3ccc(I)o3)C(=O)O2)cc1[N+](=O)[O-] [KU0073890]", "%", 7.063),
    ("O=C(Nc1c2c(nn1-c1ccccc1)CSC2)c1ccco1 [KU0055213]", "%", 17.5159),
    ("O=C1c2ccccc2C(=O)c2c1oc1c3c(ccc21)OCN(C1CCCC1)C3 [KU0064306]", "%", 18.9077),
    ("O=C(Cn1ccc2c(=O)[nH]ccc21)Nc1ccccc1Cl [Molecule 19, O=C(Cn1ccc2c1cc[nH]c2=O)Nc1ccccc1Cl]", "%", 7.548),
    ("O=[N+]([O-])c1ccc(SCc2ccco2)c2cccnc12 [KU0034480]", "%", 16.0357),
    ("Nc1ncnc(NC2CCCCC2)c1[N+](=O)[O-] [KU0193018]", "%", 3.18),
]

Please report % inhibition Apol 90' for every entry that follows.
1. CCCN1COc2ccc3c(=O)c(-c4ccccc4)coc3c2C1 [KU0199556]
2. COc1ccc(-c2occ(C(=O)O)c2C(=O)O)cc1 [KU0021536]
3. O=C(O)c1cc([N+](=O)[O-])c(N2CCN(c3cccc(C(F)(F)F)c3)CC2)c([N+](=O)[O-])c1 [KU0076747]
4. COc1ccc(NC(=O)Cn2nc3c(cc2=O)CCC3)cc1Cl [Molecule 4, COc1ccc(cc1Cl)NC(=O)Cn1nc2CCCc2cc1=O]
5. Cc1cc(C)nc(Nc2nc(CC(=O)Nc3nc(-c4ccco4)cs3)cs2)n1 [Molecule 92]

1: 8.234; 2: 18.5169; 3: 17.3572; 4: 29; 5: 3.55

Please report % inhibition Apol 90' for every entry that follows.
1. COc1cc(/C=C2\C(=O)N(c3ccc(C(=O)O)cc3)N=C2C(F)(F)F)ccc1OCC(C)C [KU0069072]
2. CCc1ccccc1NC(=O)c1ccc(-c2ncccc2NC(C)=O)cc1 [KU0203112]
3. Oc1cccnc1/N=C/c1cc(I)cc(I)c1O [KU0073720]
4. O=C(Cc1cccs1)N1CCN(c2nc(CN3CCOCC3)cs2)CC1 [Molecule 35]
5. COc1ccc(C=C2Oc3c(ccc4c3CN(Cc3ccco3)CO4)C2=O)c(OC)c1 [KU0199404]
6. CCOc1ccc2cc(C3=NN(C(=O)CCC(=O)O)C(c4ccc(C)cc4)C3)c(=O)[nH]c2c1 (centres unmarked) [KU0056200]
7. CCCCCc1c2c(cc(O)c1C(=O)O)OC(=O)c1c(cc(OC)cc1C(=O)CCCC)O2 [Molecule 24]

-0.5045
6.528
18.9546
6.43
10.7843
0.1368
20.3733
